pIC50: −log10 of the molar value.
Heads up, these compounds all have pIC50 values measured for Carbonic anhydrase 9 (Homo sapiens, UniProt Q16790).

compound: CC(=O)c1ccc(S(=O)(=O)Nc2ccccc2)cc1
measuredOn: Carbonic anhydrase 9 (Homo sapiens, UniProt Q16790)
pIC50: 7.13

compound: CCCC(C)NS(=O)(=O)c1ccc(C)cc1 (stereo unspecified)
measuredOn: Carbonic anhydrase 9 (Homo sapiens, UniProt Q16790)
pIC50: 7.15

compound: Cc1ccc(S(=O)(=O)NCc2ccccc2)cc1
measuredOn: Carbonic anhydrase 9 (Homo sapiens, UniProt Q16790)
pIC50: 7.12

compound: Cc1ccc(S(=O)(=O)NCCCN(C)C)cc1
measuredOn: Carbonic anhydrase 9 (Homo sapiens, UniProt Q16790)
pIC50: 7.03

compound: COc1ccc(S(=O)(=O)Nc2ccccc2)cc1OC
measuredOn: Carbonic anhydrase 9 (Homo sapiens, UniProt Q16790)
pIC50: 7.10

compound: Cc1ccc(S(=O)(=O)N(C)c2ccccc2)cc1
measuredOn: Carbonic anhydrase 9 (Homo sapiens, UniProt Q16790)
pIC50: 7.03
